This section presents compounds with their documented IC50 values.
Target: myeloperoxidase (Homo sapiens)
Experiment: MPO Chlorination Assay (APF Assay)
Format: biochemical
Details: potency range class, read-out: APF Assay IC50 value

Observe how each entry below is paired with its result.
compound | IC50
Nc1cc([C@H](CC(=O)NC23CCC(c4ccccc4)(CC2)C(O)C3)c2ccccc2)c2nn[nH]c2n1 (some centres unmarked) [Example 201] | 1 to 100 nM
Nc1cc([C@H](Cc2nc3ccccc3s2)c2ccccc2)c2nn[nH]c2n1 [Example 239] | 101 to 999 nM
Nc1cc([C@H](CCNC2CC[C@H](c3ccccc3)[C@@H](O)C2)c2ccccc2)c2nn[nH]c2n1 (some centres unmarked) [Example 183] | 1 to 100 nM
Nc1cc(C(Cc2ccccc2F)c2ccccc2)c2nn[nH]c2n1 (single isomer, unassigned) [Example 9] | 101 to 999 nM
Nc1cc(C(CCNC2c3ccccc3CC2c2ccccc2)c2ccccc2)c2nn[nH]c2n1 (centres unmarked) [Example 55] | 101 to 999 nM
Nc1cc([C@H](CCCN2CCC(Cc3ccccc3)C2)c2ccccc2)c2nn[nH]c2n1 (some centres unmarked) [Example 221] | 101 to 999 nM

Please look up its IC50: Nc1cc([C@H](CCCN2CCC3(CC2)NC(=O)Cc2ccccc23)c2ccccc2)c2nn[nH]c2n1 [Example 217]
101 to 999 nM

Please look up its IC50: Nc1cc(C(CCNC(c2ccccc2)C(F)(F)F)c2ccccc2)c2nn[nH]c2n1 (centres unmarked) [Example 24]
1000 to 10000 nM

====

Target: myeloperoxidase (Homo sapiens, UniProt P05164)
Sequence (P05164 49-745): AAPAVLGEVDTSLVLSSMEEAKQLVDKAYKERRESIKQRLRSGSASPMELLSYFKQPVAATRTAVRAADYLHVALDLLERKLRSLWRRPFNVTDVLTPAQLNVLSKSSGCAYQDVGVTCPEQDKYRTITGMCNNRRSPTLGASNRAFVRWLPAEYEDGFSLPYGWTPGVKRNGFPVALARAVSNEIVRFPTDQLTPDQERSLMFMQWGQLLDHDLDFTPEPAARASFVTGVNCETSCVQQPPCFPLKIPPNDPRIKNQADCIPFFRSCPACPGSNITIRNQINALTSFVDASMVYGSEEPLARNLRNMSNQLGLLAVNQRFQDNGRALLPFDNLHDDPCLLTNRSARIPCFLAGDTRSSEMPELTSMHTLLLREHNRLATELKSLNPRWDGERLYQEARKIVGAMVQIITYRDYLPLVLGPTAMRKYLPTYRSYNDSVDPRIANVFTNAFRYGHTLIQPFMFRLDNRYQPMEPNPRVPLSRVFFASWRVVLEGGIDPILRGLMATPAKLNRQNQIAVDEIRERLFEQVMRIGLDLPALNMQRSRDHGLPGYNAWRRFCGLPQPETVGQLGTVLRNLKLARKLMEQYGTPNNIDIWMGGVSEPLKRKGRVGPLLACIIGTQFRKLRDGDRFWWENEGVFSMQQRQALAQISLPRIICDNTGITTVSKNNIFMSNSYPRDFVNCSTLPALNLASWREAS
Assay: MPO Peroxidation Assay (Amplex Red Assay)
Assay type: biochemical
Conditions: potency range class, read-out: Amplex Red Assay IC50 value
pIC50: −log10 of the molar value.
endpoint name: pIC50

Observe how each entry below is paired with its result.
molecule | study system | recorded value
Nc1cc(C(CCNC(Cc2ccccc2)c2ccccc2)c2ccccc2)c2nn[nH]c2n1 (stereo not shown) [Example 47] | myeloperoxidase (Homo sapiens, UniProt P05164) | 5.00 to 6.00
CC1(NCCC(c2ccccc2)c2cc(N)nc3[nH]nnc23)CCC(c2ccccc2)CC1 (mixture of isomers) | myeloperoxidase (Homo sapiens, UniProt P05164) | 6.00 to 7.00
Nc1cc(C(CCNCc2ccccc2Cc2ccc3c(c2)CCCC3)c2ccccc2)c2nn[nH]c2n1 (stereo not shown) | myeloperoxidase (Homo sapiens, UniProt P05164) | 6.00 to 7.00

Return pIC50 measured with myeloperoxidase (Homo sapiens, UniProt P05164) given this molecule: Nc1cc(C(CCNC(Cc2ccccc2)c2ccccc2)c2ccccc2)c2nn[nH]c2n1 (stereo not shown) [Example 45]
6.00 to 7.00

Return pIC50 measured with myeloperoxidase (Homo sapiens, UniProt P05164) given this molecule: Nc1cc(C(CCNC2CCCc3ccccc32)c2ccccc2)c2nn[nH]c2n1 (stereo not shown) [Example 25]
6.00 to 7.00

Return pIC50 measured with myeloperoxidase (Homo sapiens, UniProt P05164) given this molecule: Nc1cc([C@H](CCCN2CCC(Cc3ccccc3)C2)c2ccccc2)c2nn[nH]c2n1 (stereo partly shown)
6.00 to 7.00

Return pIC50 measured with myeloperoxidase (Homo sapiens, UniProt P05164) given this molecule: COC1CC2(c3ccccc3)CCC1(NCC[C@H](c1ccccc1)c1cc(N)nc3[nH]nnc13)CC2 (stereo partly shown)
7.00 to 9.00

Return pIC50 measured with myeloperoxidase (Homo sapiens, UniProt P05164) given this molecule: Cn1c(C[C@H](c2ccccc2)c2cc(N)nc3[nH]nnc23)nc2c(-c3ccccc3)cccc21
5.00 to 6.00

Return pIC50 measured with myeloperoxidase (Homo sapiens, UniProt P05164) given this molecule: CCCCC12CCC(NCCC(c3ccccc3)c3cc(N)nc4[nH]nnc34)(CC1)CC2 (stereo not shown)
6.00 to 7.00

Return pIC50 measured with myeloperoxidase (Homo sapiens, UniProt P05164) given this molecule: Nc1cc([C@H](CCNC23CCC(c4ccccc4)(CC2)C(=O)C3)c2ccccc2)c2nn[nH]c2n1
6.00 to 7.00

Return pIC50 measured with myeloperoxidase (Homo sapiens, UniProt P05164) given this molecule: Nc1cc(C(CCOC2CCc3ccccc32)c2ccccc2)c2nn[nH]c2n1 (single isomer, unassigned) [Example 231]
6.00 to 7.00

Return pIC50 measured with myeloperoxidase (Homo sapiens, UniProt P05164) given this molecule: CC(c1cccc(F)c1)c1cc(N)nc2[nH]nnc12 (racemic)
7.00 to 9.00

Return pIC50 measured with myeloperoxidase (Homo sapiens, UniProt P05164) given this molecule: Nc1cc(C(CCNC2CCC(c3cccnc3)CC2)c2ccccc2)c2nn[nH]c2n1 (stereo not shown)
5.00 to 6.00

Return pIC50 measured with myeloperoxidase (Homo sapiens, UniProt P05164) given this molecule: Nc1cc(C(CCNC23CC4CC(CC(C4)C2)C3)c2ccccc2)c2nn[nH]c2n1 (stereo not shown)
6.00 to 7.00

Return pIC50 measured with myeloperoxidase (Homo sapiens, UniProt P05164) given this molecule: Nc1cc(C(CCO[C@H]2CC[C@H](c3ccccc3)CC2)c2ccccc2)c2nn[nH]c2n1 (stereo partly shown)
6.00 to 7.00

Return pIC50 measured with myeloperoxidase (Homo sapiens, UniProt P05164) given this molecule: Nc1cc(C(CCNCc2ccc(C(F)(F)F)cc2)c2ccccc2)c2nn[nH]c2n1 (stereo not shown)
6.00 to 7.00

====

Target: myeloperoxidase (Homo sapiens, UniProt P05164)
Test: MPO Chlorination Assay (APF Assay)
Assay type: biochemical
Details: potency range class, read-out: APF Assay IC50 value
This section presents molecules with their documented IC50 values.

molecule | recorded value
Nc1cc(C(CCNCc2ccc(C(F)(F)F)cc2)c2ccccc2)c2nn[nH]c2n1 (stereo not shown) [Example 54] | 0.101 to 0.999 µM
Nc1cc(C(CCN[C@@H]2CCc3cc(F)ccc32)c2ccccc2)c2nn[nH]c2n1 (stereo partly shown) [Example 61] | 0.101 to 0.999 µM
Nc1cc(C(CCNC2CCN(c3ccccc3)CC2)c2ccccc2)c2nn[nH]c2n1 (stereo not shown) [Example 92] | 0.001 to 0.1 µM

Pending molecule:
Please look up its IC50: Nc1cc(C(CCNC2CCc3ccccc3C2)c2ccccc2)c2nn[nH]c2n1 (stereo not shown) [Example 188]
0.001 to 0.1 µM

====

Biological target: myeloperoxidase (Homo sapiens)
Test: MPO Chlorination Assay (APF Assay)
Assay type: biochemical
Details: APF Assay IC50 value (μM), potency range class
This section presents compounds with their documented IC50 values.

compound | recorded value
Nc1cc([C@H](CCCN2CC[C@H]3C[C@@H]2Cc2ccccc23)c2ccccc2)c2nn[nH]c2n1 | 0.001 to 0.1 µM

Pending compound:
Please look up its IC50: Nc1cc(C(CCNC2(c3ccccc3)CCCCC2)c2ccccc2)c2nn[nH]c2n1 (centres unmarked)
0.001 to 0.1 µM

====

Molecular target: UniProtKB P05164
Assay: MPO Chlorination Assay (APF Assay)
Assay type: biochemical
Details: potency range class, read-out: APF Assay IC50 value
This section presents compounds with their documented IC50 values.

compound | endpoint name | recorded value
Nc1cc(C(CCNCCCc2ccccc2)c2ccccc2)c2nn[nH]c2n1 (centres unmarked) [Example 106] | IC50 | 101 to 999 nM

Please look up its IC50: Nc1cc(C(Cc2ccccc2)c2ccccc2F)c2nn[nH]c2n1 (single isomer, unassigned) [Example 10]
1 to 100 nM

Please look up its IC50: CC(NCCC(c1ccccc1)c1cc(N)nc2[nH]nnc12)c1ccccc1 (single isomer, unassigned) [Example 12]
101 to 999 nM

Please look up its IC50: Nc1cc(C(CCN2CCC(c3ccccc3)CC2)c2ccccc2)c2nn[nH]c2n1 (centres unmarked) [Example 186]
101 to 999 nM
